All values here come from paper PMC5937995.

Sequence of the target: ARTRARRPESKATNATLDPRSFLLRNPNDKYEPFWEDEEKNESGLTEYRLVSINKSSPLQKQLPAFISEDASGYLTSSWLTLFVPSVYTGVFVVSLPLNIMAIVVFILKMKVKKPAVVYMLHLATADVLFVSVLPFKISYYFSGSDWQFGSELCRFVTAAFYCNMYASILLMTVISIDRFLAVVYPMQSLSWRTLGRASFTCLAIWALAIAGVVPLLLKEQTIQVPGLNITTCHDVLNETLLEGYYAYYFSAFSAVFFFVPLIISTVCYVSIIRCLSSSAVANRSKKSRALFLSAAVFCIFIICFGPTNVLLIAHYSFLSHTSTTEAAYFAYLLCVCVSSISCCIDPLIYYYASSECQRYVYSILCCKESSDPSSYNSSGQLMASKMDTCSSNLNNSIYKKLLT
readout.name: IC50

Form: molecule = CCOC(=O)N[C@@H]1CC[C@@H]2[C@@H](C1)C[C@H]1C(=O)O[C@H](C)[C@H]1[C@H]2/C=C/c1ccc(-c2cccc(F)c2)cn1 [Vorapaxar, reference compound] ; IC50 = 32 nM
